Run Description: Biodistribution of 99mTc(N)(X)(DTC)+ heterocomplexes in rats
Format: in vivo, male Spraque-Dawley rats (SD rats)
Experimental Parameters: 4 hr after injection
Parameter: Bone % dose/g (% dose/g)

| Compound | Number |
| --- | --- |
| CSC1=[S+][99Tc-2]2(#[N])([NH]N1C)[P+](c1ccccc1)(c1ccccc1)CCOCC[P+]2(c1ccccc1)c1ccccc1 [^99mTc(N)(POP)(DTC)^+] | 0.321 |
| COCCN1CC[P+](c2ccccc2)(c2ccccc2)[99Tc-2]2(#[N])([NH]N(C)C(SC)=[S+]2)[P+](c2ccccc2)(c2ccccc2)CC1 [^99mTc(N)(PNP2)(DTC)^+] | 0.329 |

[P] COCCC[P]1(CCCOC)CCN(CCOC)CC[P](CCCOC)(CCCOC)[99Tc+]12(#[N])[NH]N(C)C(SC)=[S]2 [^99mTc(N)(PNP3)(DTC)^+]
[Q] CCCN1CC[P+](c2ccccc2)(c2ccccc2)[99Tc-2]2(#[N])([NH]N(C)C(SC)=[S+]2)[P+](c2ccccc2)(c2ccccc2)CC1 [^99mTc(N)(PNP1)(DTC)^+]
Prompt line: Response body: label of entry with the larger Bone % dose/g; valid values P , Q . Indicate which entry you chose by stating its label.
Response line: Q
